- TARGET_DESC: CDK2 (human)
- RUN_DESCRIPTION: KINOMEscan competition binding
- EXPERIMENTAL_CONDITIONS: compound 10.0 µM
Label Met when kinase still bound, per cent of control < 90%; otherwise Not met.

Query string: # TODO verify kinase still bound, per cent of control < 90% strictly for this compound: "C=CC(=O)Nc1ccc(C(=O)c2sc(Nc3ccc(N4CCN(C)CC4)cc3OC)nc2N)cc1"
Result string: Met

Query string: # TODO verify kinase still bound, per cent of control < 90% strictly for this compound: "Cc1cn(-c2cc(C(=O)Nc3ccc(C)c(NC(=O)c4ccno4)c3)cc(C(F)(F)F)c2)cn1"
Result string: Not met

Query string: # TODO verify kinase still bound, per cent of control < 90% strictly for this compound: "N#Cc1cc(-c2ccnc(Nc3ccc(-n4cnc(-c5cccnc5)n4)cc3)n2)cc(N2CCOCC2)c1"
Result string: Met

Query string: # TODO verify kinase still bound, per cent of control < 90% strictly for this compound: COc1cc(C)c(Sc2cnc(NC(=O)c3ccc(CNC(C)C(C)C)cc3)s2)cc1C(=O)N1CCN(C(C)=O)CC1 (centres undefined)
Result string: Not met

Query string: # TODO verify kinase still bound, per cent of control < 90% strictly for this compound: "CCOc1cc(N2CCC(O)CC2)ccc1Nc1ncc2c(n1)N(C)c1ccccc1C(=O)N2C"
Result string: Not met

Query string: # TODO verify kinase still bound, per cent of control < 90% strictly for this compound: "CCN(CCO)CCCOc1ccc2c(Nc3cc(CC(=O)Nc4cccc(F)c4)[nH]n3)ncnc2c1"
Result string: Met

Query string: # TODO verify kinase still bound, per cent of control < 90% strictly for this compound: "COc1cc2ncnc(Nc3cccc(Cl)c3)c2cc1OC"
Result string: Not met

Hello, the source for this data is the kinase profiling compilation of Christmann-Franck et al. (2016), in case you need it.
